Assay: small-molecule microarray binders of probe aEGFR, primary screen, biochemical, biotinylated probe, 635/667 nm fluorescence (AID 1097);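 further: probe is a biotinylated anti-EGFR antibody binding compounds printed on slides; score combines fluorescence near 667 nm and signal to noise of each spot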
Details: higher = more signal
Reported composite z-score values for a set of molecules
// return just the number, without any unit appended

Completed entries (count: 4):
MOLECULE: COCCCNC(=O)[C@@]1(C)c2ccccc2C(=O)N(Cc2cc(F)cc(C(F)(F)F)c2)[C@H]1c1ccc(CO)cc1
composite z-score: -0.293
//
MOLECULE: CCOC(=O)C[C@H]1[C@H](OC(=O)c2ccc(-c3ccccc3)cc2)[C@@H](NC(=O)c2ccccc2)c2cc(OCCCO)ccc2N1C(=O)c1ccccc1
composite z-score: -0.019
//
MOLECULE: O=C(O)[C@H]1C[C@H]2C(=O)N[C@@H](Cc3ccccc3)C(=O)N2[C@H]1c1ccc(O)cc1
composite z-score: 0.064
//
MOLECULE: C/C=C/[C@@H](CCn1cc(CCO[Si](C(C)C)(C(C)C)C(C)C)nn1)[Si](C)(C)c1ccc(OC)cc1
composite z-score: -0.406

Request: For the molecule shown here, C=CCC(OC(C)=O)[C@@H]1[C@@H](N(Cc2ccc(-c3cccc(C(F)(F)F)c3)o2)C(=O)c2ccc(-c3ccccc3)cc2)c2cc(OCCCO)ccc2N1C(=O)Cc1ccc(OC)cc1 (stereo partly specified) , give the reported composite z-score.
Result: -0.191

Request: Consider the molecule shown here: [N-]=[N+]=NCc1ccccc1C[C@@]1(C(=O)NCc2ccccc2)N=C(c2ccc(OCCCO)cc2)O[C@@H]1c1ccccc1 What is its recorded composite z-score?
Result: 0.0139

Request: Query (molecule): C=CCN1C(=O)[C@@]2(O[C@@H](CCn3cc(CCO)nn3)[C@H]([Si](C)(C)c3ccc(OC)cc3)[C@H]2C)c2cc(NC(=O)c3ccc(OC)cc3)ccc21 ; field requested: composite z-score
Result: -0.0895

Request: # composite z-score lookup, item CC(C)[Si](C#C[Si](C(C)C)(C(C)C)C(C)C)(O[C@H](C)c1cn([C@H](C)c2ccccc2)nn1)C(C)C
Result: -0.0525

Request: Which composite z-score is listed for COCCOC(=O)N1C(=O)[C@@]2(c3cc(C#CCNC(N)=O)ccc31)[C@H](C(=O)NC[C@H](O)c1ccccc1)[C@H]1C(=O)O[C@H](c3ccccc3)[C@H](c3ccccc3)N1[C@@H]2c1ccc(O)cc1 ?
Result: -0.132

Request: Query (molecule): COC(=O)C1=CC(CCCO)=CC(C2CC2)N(Cc2cc3c(cc2Br)OCO3)C=C1C(=O)OC (stereo unspecified) ; field requested: composite z-score
Result: 0.0821

Request: Entry under review: COCCOC(=O)N1C(=O)[C@@]2(c3cc(C#CCNC(N)=O)ccc31)[C@H](c1ccccc1OCCO)N1[C@H](c3ccccc3)[C@H](c3ccccc3)OC(=O)[C@H]1[C@@H]2C(=O)Nc1nc2ccccc2s1 . Reported composite z-score?
Result: -0.0732

Request: // composite z-score lookup, key: CC(C)C[C@@H]1NC(=O)[C@H]2C[C@@H](C(=O)NCCCC[N+](C)(C)C)[C@@H](c3cccc(OCCO)c3)N2C1=O
Result: 0.009

---

# key: entry, value: composite z-score
Test: binders from COS7 lysate, DM2A8 probe, primary screen, torsin A project, cell lysate, small-molecule microarray, fluorescence 635/667 (AID 1065)
Settings: higher = more signal, COS7 lysate expressing mutant human TOR1A

Request: So what does the record say about composite z-score for CCOC(=O)C[C@H]1[C@H](OC(=O)c2ccc(-c3ccccc3)cc2)[C@@H](NC(=O)c2ccccc2)c2cc(OCCCO)ccc2N1C(=O)c1ccccc1 ?
Result: 0.707

Request: composite z-score for CCCC[C@@H](O)C1=C(C)C[C@H]2C(=O)N(C)C(=O)[C@H]2[C@H]1CO ?
Result: -0.305

Request: Which composite z-score is listed for C=C[C@H](OC)[C@@H](OC(=O)Nc1ccc(OC)cc1)c1ccc(OC)c(O)c1 ?
Result: -0.68

---

Experiment: NIH:OVCAR-3 ovarian cancer cell cytotoxicity, dose response, PAX8 inhibitor project, plate reader, dry powder samples (AID 743044)
Conditions: NIH:OVCAR-3 ovarian cancer cell viability; at 35 µM, stronger effect = lower value unless noted
Entries with a potency or affinity are not part of this list. Results filed as inconclusive are left out. The source made the active and inactive calls. How the calls were made is not given here.
QUANTITY: max activity

Request: // max activity lookup, key: C[C@@H]1CN([C@H](C)CO)C(=O)c2cc(NC(=O)Nc3ccc(C(F)(F)F)cc3)ccc2O[C@@H](C)CCCCO[C@H]1CN(C)C(=O)Nc1ccc(F)cc1
Result: -1.73% (inactive)

Request: Give the measured max activity of C[C@@H]1CCCCO[C@H](CN(C)Cc2ccc(C(F)(F)F)cc2)[C@H](C)CN([C@H](C)CO)C(=O)c2cc(NS(=O)(=O)c3ccccc3)ccc2O1 .
Result: -11.2% (inactive)

Request: Which value of max activity has been reported for C[C@H]1CCCCO[C@@H](CN(C)C(=O)Nc2ccc(C(F)(F)F)cc2)[C@@H](C)CN([C@@H](C)CO)C(=O)c2cc(NS(=O)(=O)c3cn(C)cn3)ccc2O1 in the records?
Result: -16.1% (inactive)

---

Recorded composite z-score by entry
Target: Dickkopf-related protein 1 (Homo sapiens)
Assay: DKK1 binders on small-molecule microarrays, primary screen, biochemical, small-molecule microarray, 635 nm fluorescence scan (AID 1106);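 further: score merges emission near 667 nm with signal to noise over three replicate slides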
Conditions: DKK1 binding, higher = more signal
In your answer, state the number alone without any accompanying words.

Request: State the recorded composite z-score for this entry: CO[C@H]1O[C@H](CO)[C@@H](OC(=O)Nc2ccccc2)[C@H](OC(=O)Nc2ccc3c(c2)OCO3)[C@H]1OC(=O)Nc1ccc2c(c1)OCO2
Result: 0.0894

Request: Given the compound COC(=O)C(CC#Cc1ccc2c(c1)[C@]1(C(=O)N2)[C@H](C(=O)O)[C@H]2C(=O)O[C@H](c3ccccc3)[C@H](c3ccccc3)N2[C@@H]1c1ccc(OCCO)cc1)C(=O)OC , what is its reported composite z-score?
Result: -0.611

Request: Any idea what composite z-score was measured for CC(C)(C)OC(=O)CC[C@@]1(C(=O)N2CCOCC2)N=C(c2ccc(OCCCO)cc2)O[C@@H]1c1ccccc1 ?
Result: -0.607

Request: Field request: composite z-score | item: CCCNC(=O)[C@@]1(Sc2ccc(C)cc2)CC(=O)N(Cc2cc(C(F)(F)F)cc(C(F)(F)F)c2)[C@@H]1c1ccc(CO)cc1I
Result: -0.799

Request: For the compound NC(=O)NCC#Cc1ccc2c(c1)[C@]1(C(=O)N2)[C@H](c2ccc(OCCO)cc2)N2[C@H](c3ccccc3)[C@H](c3ccccc3)OC(=O)[C@H]2[C@@H]1C(=O)Nc1nc2ccccc2s1 , what composite z-score is on record?
Result: -0.463

---

Experiment: basal RPMI8226 viability, no added stimulus, profiling panel, cell-based, calcein-AM fluorescence, 48 h, PK04 Diversity Set (AID 1166);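 further: cells grown under basal conditions without added stimulus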
Conditions: RPMI8226 myeloma viability, higher = more signal
Entries and their measured z-score follow.
// print number alone

MOLECULE: Cc1ccc(S[C@]2(C(=O)NCCN3CCOCC3)CC(=O)N(Cc3cc(C(F)(F)F)cc(C(F)(F)F)c3)[C@@H]2c2ccc(CO)cc2)cc1
z-score: 0.603
//
MOLECULE: COCCOC(=O)N1C(=O)[C@@]2(c3cc(C#CCCO)ccc31)[C@H](c1ccccc1OCCO)N1[C@H](c3ccccc3)[C@H](c3ccccc3)OC(=O)[C@H]1[C@@H]2C(=O)NC[C@H](O)c1ccccc1
z-score: -1.11

Request: I have this molecule here, [N-]=[N+]=Nc1ccccc1[C@H]1OC(c2ccc(OCCCO)cc2)=N[C@@]1(Cc1ccccc1)C(N)=O , and I need its recorded z-score.
Result: -3.37

Request: For C=C(COC)/C(=C/C[C@H](OC(C)=O)c1ccc(CO)o1)c1cnc2ccccc2c1 , what is its reported z-score?
Result: -0.182

Request: Item C=C1C=C(Br)C2(OCCCO2)[C@H]2OC12 (stereo partly drawn) has what recorded z-score?
Result: -0.0566

Request: Look at this molecule and give its reported z-score. C=C(CCCC)/C(=C/C[C@H](OC(=O)c1ccncc1)c1ccc(CO)o1)c1cnc2ccccc2c1
Result: 0.117

Request: z-score lookup needed for COc1c(C)cc(-c2cc3c(c(CCc4ccccc4)n2)[Si](C(C)C)(C(C)C)OC3)cc1C , thanks.
Result: 0.0965

Request: Given the molecule [N-]=[N+]=NCc1ccccc1C[C@@]1(C(=O)NCc2ccccc2)N=C(c2ccc(OCCCO)cc2)O[C@@H]1c1ccccc1 , what is its reported z-score?
Result: -3.02

Request: # query: z-score of entry C[N+](C)(C)CCCC[C@@H]1NC(=O)[C@@H]2C[C@H](C(=O)NCCCCCNC(=O)CS)[C@H](c3ccc(O)cc3)N2C1=O
Result: 0.027

Request: Which z-score is listed for O=C1c2ccccc2[C@](Cc2ccccc2I)(C(=O)O)[C@H](c2ccc(CO)cc2)N1Cc1ccccc1Cl ?
Result: -1.18

Request: // returns reported z-score for input CC(C)(C)OC(=O)CC[C@]1(C(=O)NCc2ccccc2)COC(c2ccc(OCCCO)cc2)=N1
Result: 0.554

Request: Quick one: z-score of CCOC(=O)C[C@H]1[C@H](OC(=O)Cc2ccc3c(c2)OCO3)[C@@H](NC(=O)c2ccc3ccccc3c2)c2cc(OCCCO)ccc2N1C(=O)c1ccc2ccccc2n1 ?
Result: 0.934

Request: # input molecule: COC(=O)C(CC#Cc1ccc2c(c1)[C@]1(C(=O)N2)[C@H](C(=O)O)[C@H]2C(=O)O[C@H](c3ccccc3)[C@H](c3ccccc3)N2[C@@H]1c1ccc(OCCO)cc1)C(=O)OC ; wanted: its z-score
Result: -3.54

Request: Given the entry CC(C)(C)OC(=O)CC[C@@]12N=C(c3ccc(OCCCO)cc3)O[C@@H]1c1ccccc1CN(Cc1ccccc1)C2=O , report its measured z-score.
Result: -4.06

Request: Query (molecule): C=C(C1=CCN(S(=O)(=O)c2ccc(C)cc2)C1)[C@@H](OC(C)=O)[C@@H]1CCCN1S(=O)(=O)c1ccccc1[N+](=O)[O-] ; field requested: z-score
Result: -4.14

Request: Which z-score is reported for this molecule? O=C1N(CCS(=O)(=O)c2ccccc2)Cc2ccccc2[C@@H]2OC(c3ccc(OCCCO)cc3)=N[C@]12Cc1ccccc1
Result: -0.222
